test protocol: Quantitative High-Throughput drug screen in 47 multiple myeloma cell lines against the NCATS MIPE library collection: Delta47_JCRB cell viability assay (AID 1918925; further: nearly all actives have a fitted effect of over 45% in size)
experimental context: Delta47 myeloma viability, CellTiter-Glo ATP, 48 h; series mostly up to 45.8 µM
Excerpt: PI: Beverly A. Mock Ph.D. Laboratory of Cancer Biology and Genetics, Center for Cancer Research, National Cancer Institute, National Institute of Health, Bethesda, Maryland […] 5; Detector; 425V; Luminescence; Viewlux PerkinElmer. […] 1. […] Briefly, the corresponding myeloma cell lines were screened in 1,536-well plates with 500 cells, 5-uL per well for inhibition of cell viability (assessed by measuring ATP levels with CellTiterGlo). […]
Results filed as inconclusive are left out. Calls of active or inactive are those of the source. The call rests on the fitted dose curve; in most records, active means well fitted cell-killing curve with a large enough effect; inconclusive means small, poorly fitted or top-dose-only effect, or effect the other way; inactive means no such curve, though single readings can be large or run the other way.
Labels: active, inactive

compound	class assignment
CN(C)c1ccc(C(=O)NCCCCCCC(=O)NO)cc1	active
CC(C)N1[N]C(=C2C=c3cc(O)ccc3=N2)c2c(N)ncnc21	active
CCCNS(=O)(=O)Nc1ncnc(OCCOc2ncc(Br)cn2)c1-c1ccc(Br)cc1	active
O=C1NC(=O)C(=Cc2ccc3nccc(-c4ccncc4)c3c2)S1	active
Cc1cc(O)c2c(c1)C(=O)c1cccc(O)c1C2=O	inactive
COc1cccc2c1C(=O)c1c(O)c3c(c(O)c1C2=O)C[C@@](O)(C(=O)CO)C[C@@H]3O[C@H]1C[C@H](N)[C@H](OC2CCCCO2)[C@H](C)O1 (stereo partly specified)	active

----------
test protocol: qHTS of pediatric cancer cell lines to identify multiple opportunities for drug repurposing: Primary screen for Rh30 cells (AID 1347107); further: nearly all actives have a fitted effect of over 75% in size
experimental context: Rh30 rhabdomyosarcoma viability, CellTiter-Glo luminescence, 48 h; series mostly up to 46 µM
Results filed as inconclusive are left out. The source made the active and inactive calls. The call rests on the fitted dose curve; in most records, active means well fitted cell-killing curve with a large enough effect; inconclusive means small, poorly fitted or top-dose-only effect; inactive means no such curve, though single readings can be large or run the other way.
Possible outcomes: label 1 = active, label 0 = inactive

molecule	class assignment
COc1ccc(C=Cc2cc(OC)c(OC)c(OC)c2)cc1NC(=O)[C@H](N)CO	label 0
CC(C)c1cc(C(C)C)c(CC(=O)NS(=O)(=O)Oc2c(C(C)C)cccc2C(C)C)c(C(C)C)c1	label 0
C[C@H](O)[C@@H]1C(=O)N2C(C(=O)O)=C(S[C@@H]3CN[C@H](CNS(N)(=O)=O)C3)[C@@H](C)[C@@H]12	label 0
O=c1[nH]c(=O)n([C@H]2C[C@@H](O)[C@@H](CO)O2)cc1F	label 1
COC(=O)[C@@H]1[C@H]2C[C@@H]3c4[nH]c5ccccc5c4CCN3C[C@@H]2CC[C@@H]1O	label 0
CCOC(=O)C=C[C@H](C[C@@H]1CCNC1=O)NC(=O)[C@@H](CC(=O)[C@@H](NC(=O)c1cc(C)on1)C(C)C)Cc1ccc(F)cc1	label 0
C=C1C(=O)O[C@H]2[C@@H]1CCC(C)=CCC[C@@]1(C)O[C@@H]21	label 1
COC(=O)C1C2CC3c4[nH]c5cc(OC)ccc5c4CCN3CC2CC(OC(=O)c2cc(OC)c(OC)c(OC)c2)C1OC (stereo not given)	label 0
CC(C)C[C@H](NC(=O)[C@@H](NC(=O)c1cccc(-c2ccccc2)n1)[C@@H](C)O)B(O)O	label 1
O=C(C=Cc1ccc(CN(CCO)CCc2c[nH]c3ccccc23)cc1)NO	label 1
CC(=O)O[C@H]1C[C@@H]2CC[C@H]3[C@H]4C[C@H]([N+]5(C)CCCCC5)[C@@H](OC(C)=O)[C@@]4(C)CC[C@@H]3[C@@]2(C)C[C@H]1[N+]1(C)CCCCC1	label 0
CC(=O)N1CCN(c2ccc(OCc3nn(C)c(C)c3-c3cccc4c(CCCOc5cccc6ccccc56)c(C(=O)O)n(Cc5cccnc5)c34)cc2)CC1	label 1
CC[C@H]1OC(=O)[C@H](C)[C@@H](O[C@H]2C[C@@](C)(OC)[C@@H](O)[C@H](C)O2)[C@H](C)[C@@H](O[C@@H]2O[C@H](C)C[C@H](N(C)C)[C@@H]2O)[C@](C)(OC)C[C@@H](C)C(=O)[C@H](C)[C@@H](O)[C@]1(C)O	label 0
Cn1cc(CNCC2CCN(c3ncc(C(=O)NO)cn3)CC2)c2ccccc21	label 1
CCNC(=O)c1cc2c(-c3cc(OCCN4CCCC4)c(Cl)cc3Cl)nc(N)nc2s1	label 0

----------
test protocol: qHTS Screen of the MIPE 4.0 Collection Against Ewings Sarcoma (EW8) (AID 1259255); further: nearly all actives have a fitted effect of over 35% in size;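 on viability: 100% = DMSO-treated cells and 0% = medium-only wells without cells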
experimental context: EW8 Ewing sarcoma viability, CellTiter-Glo, 48 h; series mostly up to 45.8 µM
Inconclusive results are not listed. Activity calls are given as the source filed them. The call rests on the fitted dose curve; in most records, active means well fitted inhibition curve with a large enough effect; inconclusive means small, poorly fitted or top-dose-only effect; inactive means no such curve, though single readings can be large or run the other way. Positions of bridges follow the written chain, without caps; N, C: chain ends. Non-standard residues stand in square brackets, D forms with d. Residues, ends and D or L forms follow the SMILES beside them. ξ: configuration not given here. *: point of attachment. Octanoyl(6-Me) = CCC(C)CCCCC(=O)*; ξThr(3R) = C[C@@H](O)C(N)C(=O)O; dDab = NCC[C@@H](N)C(=O)O; Dab = NCC[C@H](N)C(=O)O
Classes used: True (active), False (inactive)

compound	class assignment
COC(=O)C=CC(=O)OC	True
COc1cccc2c1C(=O)c1c(O)c3c(c(O)c1C2=O)C[C@@](O)(C(=O)CO)C[C@@H]3O[C@H]1C[C@H](N)[C@@H](O)[C@H](C)O1	True
O=C(C=CC#Cc1cccc(NS(=O)(=O)c2ccccc2)c1)NO	True
C[C@@]12C[C@@]3(O)O[C@@H](O1)[C@]1(COC(=O)c4ccccc4)[C@@H]3C[C@@]12O[C@@H]1O[C@H](CO)[C@@H](O)[C@H](O)[C@@H]1O	False
O=C(O)CCCCC(CCSCc1ccccc1)SCc1ccccc1 (centres undefined)	False
COc1cccc2c1C(=O)c1c(O)c3c(c(O)c1C2=O)C[C@@](O)(C(=O)CO)C[C@@H]3O[C@H]1C[C@H](N)[C@H](OC2CCCCO2)[C@H](C)O1 (some centres undefined)	True
CCC(C)CCCCC(=O)N[C@@H](CCN)C(=O)NC(C(=O)N[C@H](CCN)C(=O)N[C@@H]1CCNC(=O)C([C@@H](C)O)NC(=O)[C@@H](CCN)NC(=O)[C@@H](CCN)NC(=O)[C@@H](CC(C)C)NC(=O)[C@H](Cc2ccccc2)NC(=O)[C@H](CCN)NC1=O)[C@@H](C)O (stereo partly drawn) ({Octanoyl(6-Me)}-[Dab][ξThr(3R)][dDab][dDab][Dab]F[dL][dDab][dDab][ξThr(3R)]; lactam 4-C)	False
O=C(C=CC=Cc1ccc2c(c1)OCO2)N1CCCCC1	False
CNC(=O)c1ccc(Nc2cc(Nc3ccccc3S(=O)(=O)C(C)C)c3cc[nH]c3n2)nc1	True
C[C@H]1C[C@H]2[C@@H]3CCC4=CC(=O)C=C[C@]4(C)[C@@H]3C(=O)C[C@]2(C)[C@@]1(O)C(=O)CO	False
CN1CCCN(C(=O)c2cccc(-c3ccc(C=C4C(=O)Nc5ccc(Cl)cc54)o3)c2)CC1	True
C[C@@H]1C(=O)O[C@H]2CC34[C@H]5C[C@@H](C(C)(C)C)C36[C@H](OC(=O)[C@@H]6O)O[C@@]4(C(=O)O5)[C@]21O (some centres undefined)	False
CC(=O)O[C@H]1C[C@@H]2CC[C@H]3[C@H]4C[C@H]([N+]5(C)CCCCC5)[C@@H](OC(C)=O)[C@@]4(C)CC[C@@H]3[C@@]2(C)C[C@H]1N1CCCCC1	True
C#C[C@]1(O)CC[C@@H]2[C@@H]3CCc4cc(O)ccc4[C@H]3CC[C@@]21C	True

----------
test protocol: Quantitative High-Throughput drug screen in 47 multiple myeloma cell lines against the NCATS MIPE library collection: OCIMY5_PLB cell viability assay (AID 1918988); further: nearly all actives have a fitted effect of over 65% in size
experimental context: OCI-MY5 myeloma viability, ATP luminescence, 48 h; series mostly up to 45.8 µM
Results filed as inconclusive are left out. Calls of active or inactive are those of the source. Calls come from the whole dose curve; as a rule, active = well fitted cell-killing curve with a large enough effect; inconclusive = small, poorly fitted or top-dose-only effect, or effect the other way; inactive = no such curve, though single readings can be large or run the other way. Non-standard residues stand in square brackets, D forms with d. Residues, ends and D or L forms follow the SMILES beside them. *: point of attachment. Nva = CCC[C@H](N)C(=O)O; Cbz = O=C(OCc1ccccc1)*
Possible outcomes: Y for active, N for inactive

compound	class assignment
CC(=O)O[C@@]12CO[C@H]1C[C@H](O)[C@@]1(C)C(=O)[C@H](O)C3=C(C)[C@@H](OC(=O)C(O)[C@@H](NC(=O)OC(C)(C)C)c4ccccc4)C[C@@](O)([C@@H](OC(=O)c4ccccc4)[C@@H]21)C3(C)C (stereo partly drawn)	N
Cc1cncc2cccc(S(=O)(=O)N3CCCN(C(=O)CN)C[C@@H]3C)c12	Y
CC(C)c1cc(C(C)C)c(CC(=O)NS(=O)(=O)Oc2c(C(C)C)cccc2C(C)C)c(C(C)C)c1	Y
COc1cc(O)c2c(c1)C1OC1C[C@H](O)[C@H](O)C(=O)C=CC[C@H](C)OC2=O (stereo partly drawn)	Y
COc1ccc(S(=O)(=O)Nc2cccnc2Nc2ccc(O)cc2)cc1	Y
CC(C)(O)Cn1c(NC(=O)c2ccc(-c3cn[nH]c3)s2)nc2cc(CN3CCOCC3)ccc21	Y
CCC[C@@H](C=O)NC(=O)[C@H](CC(C)C)NC(=O)[C@H](CC(C)C)NC(=O)OCc1ccccc1 (Cbz-Leu-Leu-[Nva]-aldehyde)	Y
COc1cc(C(=O)NC2CCN(C)CC2)ccc1Nc1ncc2c(n1)N(C1CCCC1)CCC(=O)N2C(C)C	Y
Cc1ccc(-n2[nH]c(C)c(N=Nc3cccc(-c4cccc(C(=O)O)c4)c3O)c2=O)cc1C	Y
N#Cc1cc(NC(=O)Nc2nnc(-c3ccncc3)s2)ccc1-c1cn[nH]c1	Y
CCc1ccc(C(=O)Nc2cc(CN3CCN(C)CC3)cc(C(F)(F)F)c2)cc1C#Cc1cnc2ccnn2c1	Y
Nc1nc(N)c2nc(-c3cccc(O)c3)c(-c3cccc(O)c3)nc2n1	Y
COC(=O)C=CC(=O)OC	Y
O=C1CSC(=O)N1C(CCc1ccncc1)COc1ccc(-c2cccc([N+](=O)[O-])c2)cc1 (stereo not drawn)	Y
C[C@@H](NCc1cc2ccccc2[nH]1)c1cccc2ccccc12	N
O=c1ccn([C@@H]2O[C@H](CO)[C@H](O)[C@@H]2F)c(=O)[nH]1	N
CCC[C@H]1C[C@H](C(=O)N[C@@H]([C@@H]2O[C@@H](SC)[C@@H](O)[C@@H](O)[C@@H]2O)[C@H](C)Cl)N(C)C1	N
COc1cc2c(cc1O)CCC1C2CC[C@@]2(C)C1CC[C@@H]2O (stereo partly drawn)	Y
